System: STK16;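 also: KINOMEscan kinase panel screen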
conditions: concentration: 1 μM, replicates: in singlicate; n = 1
property_name: %Inh (%)
Please give a number only; it is taken to be in %.

These recorded examples may help you get a feel for the data.
## Input May I ask what %Inh has been recorded for c1ccc(Oc2ccc(Nc3ccnc4cc(-c5ccc(CN6CCCCC6)o5)ccc34)cc2)nc1 ?
## Output 0

## Input Try CC(=O)Nc1cn2nc(Oc3cccc(NC(=O)c4cccc(C(F)(F)F)c4)c3)ccc2n1 next.
## Output 10

## Input Try CCn1c(-c2nonc2N)nc2c(-c3ccccc3)ncc(OCCCN)c21.O=C(O)C(F)(F)F.O=C(O)C(F)(F)F next.
## Output 0

Now for another entry.
## Input May I ask what %Inh has been recorded for COc1ccc(C)c(Nc2ccnc(Nc3ccc(-c4cnc[nH]4)cc3)n2)c1.Cl ?
## Output 15
